Reported GI50 values for the following compounds.
Tested on: SNB-75 CNS

- Compound structure string: "CCCCCCC[CH2][Sn]([Cl])([Cl])[CH2]CCCCCCC"
  Target desc: "SNB-75 CNS"
  GI50: "3.67 µM"
- Compound structure string: "C=CC(=O)N1CC2(CCC(n3nc(-c4ccc(Oc5ccccc5)cc4)c4c(N)ncnc43)CC2)C1"
  Target desc: "SNB-75 CNS"
  GI50: "< 0.0151 µM"
- Compound structure string: "CCOC(=O)Nc1nc2cc(OC)c(OC)c(OC)c2s1"
  Target desc: "SNB-75 CNS"
  GI50: "16.9 µM"
- Compound structure string: "COc1cc(C(=O)/C=C/c2c(C)n([O-])c3ccc(C(F)(F)F)cc3[n+]2=O)cc(OC)c1OC"
  Target desc: "SNB-75 CNS"
  GI50: "10.9 µM"

---

molecules and their reported TGI
System: NCI-H522 lung
Test protocol: NCI tumour cell line growth inhibition, 48 h
Endpoint name: TGI (µM)

- Molecule: "COc1cc(C(=O)/C=C/c2c(C)n([O-])c3ccc(C(F)(F)F)cc3[n+]2=O)cc(OC)c1OC"
  Relation qualifier: "="
  Readout value: 0.784
- Molecule: "Cc1nc(Nc2ccc(Cl)cc2Cl)sc1C(=O)Nc1ccccc1"
  Relation qualifier: ">"
  Readout value: 100
- Molecule: "COc1ccc(C2C(C#N)=C(N)Oc3c2sc2c(C)cccc32)cc1 (stereo not given)"
  Relation qualifier: "="
  Readout value: 6.01
- Molecule: "N#CC1=C(Cl)NC(Cl)=C(C#N)C1c1ccc(Cl)cc1"
  Relation qualifier: "="
  Readout value: 25.8
- Molecule: "COc1ccc(C2=Nn3c(nnc3-c3ccccc3)S/C2=C\\c2ccc(-c3ccc([N+](=O)[O-])cc3)o2)cc1"
  Relation qualifier: "="
  Readout value: 81.8

---

System: SF-268 CNS
Below, each entry is listed with its recorded GI50.

- Compound: "Cc1ccc2cc3c(N)c4c(C)ccc(C)c4nc3nc2c1"
  GI50: "11.8 µM"
- Compound: "CC(C)OC(=O)Nc1ccc(-c2nc(-c3cccc(OCCN4CCOCC4)c3)c(-c3ccnc(Br)c3)[nH]2)cc1"
  GI50: "4.05 µM"
- Compound: "COc1ccc(/C=C/C(=O)c2ccc(NC(=O)CSc3nnc(-c4ccc(OC)c(OC)c4)n3-c3ccccc3)cc2)cc1"
  GI50: "1.89 µM"
- Compound: "c1ccc(N2CCN(CN3CCN(c4ccccc4)C3)C2)cc1"
  GI50: "> 100 µM"
- Compound: "COc1ccc(/C(COc2ccc3c(c2)oc(=O)c2cc(OC)ccc23)=N/O)cc1"
  GI50: "8.33 µM"
- Compound: "COc1ccc(C2C(C#N)=C(N)Oc3c2sc2c(C)cccc32)cc1 (stereo not given)"
  GI50: "1.2 µM"
- Compound: "C=CCSSC1N=CNc2nc[nH]c21 (stereo not given)"
  GI50: "5.66 µM"
- Compound: "COC(=O)/C=C1/SC(=Nc2ccc(C(F)(F)F)cc2)N(CCc2c[nH]c3ccc(O)cc23)C1=O"
  GI50: "1.69 µM"
- Compound: "CCOC(=O)Nc1nc2cc(OC)c(OC)c(OC)c2s1"
  GI50: "50.4 µM"
- Compound: "Clc1nc(Cl)c2ncn(CC#CCn3cnc4c(Cl)nc(Cl)nc43)c2n1"
  GI50: "1.89 µM"
